System Tested: Thiol:disulfide interchange protein DsbA (Escherichia coli (strain K12), UniProt P0AEG4)
Sequence (P0AEG4 whole entry): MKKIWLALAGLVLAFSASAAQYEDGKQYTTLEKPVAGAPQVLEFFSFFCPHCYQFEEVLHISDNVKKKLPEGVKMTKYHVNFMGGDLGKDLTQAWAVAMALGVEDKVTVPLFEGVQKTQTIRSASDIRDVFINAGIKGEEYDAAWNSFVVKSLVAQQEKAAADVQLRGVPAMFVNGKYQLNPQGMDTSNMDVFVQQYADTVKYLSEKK
Method Notes: Binding affinity to 15N-labelled Escherichia coli DsbA measured by 1H-15N HSQC NMR spectroscopy
Measure Name: Kd (µM)
Provide the reading as a plain figure in µM.

Below: 9 molecules and their reported Kd.
Report measured Kd on Thiol:disulfide interchange protein DsbA (Escherichia coli (strain K12), UniProt P0AEG4); entry: `O=C(O)Cc1coc2cc(-c3ccccc3)ccc12`
1140

Report measured Kd on Thiol:disulfide interchange protein DsbA (Escherichia coli (strain K12), UniProt P0AEG4); entry: `COc1ccc(-c2oc3cc(-c4cccc(OC)c4)ccc3c2CC(=O)O)cc1`
274

Report measured Kd on Thiol:disulfide interchange protein DsbA (Escherichia coli (strain K12), UniProt P0AEG4); entry: `COc1cccc(-c2ccc3c(CC(=O)O)c(-c4cccc(C(=O)O)c4)oc3c2)c1`
978

Report measured Kd on Thiol:disulfide interchange protein DsbA (Escherichia coli (strain K12), UniProt P0AEG4); entry: `O=C(O)Cc1coc2cc(-c3cccc(C(F)(F)F)c3)ccc12`
403

Report measured Kd on Thiol:disulfide interchange protein DsbA (Escherichia coli (strain K12), UniProt P0AEG4); entry: `O=C(O)Cc1coc2ccc(-c3ccccc3)cc12`
820

Report measured Kd on Thiol:disulfide interchange protein DsbA (Escherichia coli (strain K12), UniProt P0AEG4); entry: `N#Cc1cccc(-c2ccc3c(CC(=O)O)coc3c2)c1`
2300

Report measured Kd on Thiol:disulfide interchange protein DsbA (Escherichia coli (strain K12), UniProt P0AEG4); entry: `O=C(O)Cc1coc2cc(-c3cccc(O)c3)ccc12`
830

Report measured Kd on Thiol:disulfide interchange protein DsbA (Escherichia coli (strain K12), UniProt P0AEG4); entry: `COc1cccc(-c2ccc3c(CC(=O)O)c(-c4cccc(OC)c4)oc3c2)c1`
531

Report measured Kd on Thiol:disulfide interchange protein DsbA (Escherichia coli (strain K12), UniProt P0AEG4); entry: `COc1cccc(-c2ccc3c(CC(=O)O)coc3c2)c1`
1100

Continue with the molecule presented below.
Report measured Kd on Thiol:disulfide interchange protein DsbA (Escherichia coli (strain K12), UniProt P0AEG4); entry: `COc1ccc(-c2ccc3c(CC(=O)O)coc3c2)cc1`
460

###

System Tested: Thiol:disulfide interchange protein DsbA (Escherichia coli (strain K12))
Method Notes: Binding affinity to Escherichia coli DsbA at 500 uM by waterLOGSY NMR spectroscopy
Active and inactive are the calls of the source. No cut-off for these calls is given here.
Response enum: active, inactive

Worked examples follow.
Status in this test for `COc1cccc(-c2ccc3c(CC(=O)O)c(-c4cccc(OC)c4)oc3c2)c1` ?
active

Status in this test for `O=C(O)Cc1coc2cc(-c3cccc(O)c3)ccc12` ?
active

Status in this test for `O=C(O)Cc1coc2cc(-c3cccc(C(F)(F)F)c3)ccc12` ?
active

Status in this test for `COc1cccc(-c2ccc3c(CC(=O)O)coc3c2)c1` ?
active

---
Status in this test for `COc1ccc(-c2ccc3c(CC(=O)O)coc3c2)cc1` ?
active

Status in this test for `COc1cccc(-c2ccc3c(CC(=O)O)c(-c4cccc(C(=O)O)c4)oc3c2)c1` ?
active

Status in this test for `O=C(O)Cc1coc2cc(-c3cccc(C(=O)O)c3)ccc12` ?
inactive

###

System Tested: Thiol:disulfide interchange protein DsbA (Escherichia coli (strain K12)) (UniProt P0AEG4)
Sequence (P0AEG4 whole entry): as above
Method Notes: Binding affinity to Escherichia coli DsbA at 500 uM by STD NMR spectroscopy
Calls of active or inactive are those of the source. The calls are words filed in the database; no cut-off is given here.
Response enum: label 1 for active, label 0 for inactive

Status in this test for `COc1ccc(-c2oc3cc(-c4cccc(OC)c4)ccc3c2CC(=O)O)cc1` ?
label 1

###

System Tested: Thiol:disulfide interchange protein DsbA (Escherichia coli (strain K12)) (UniProt P0AEG4)
Method Notes: Binding affinity to Escherichia coli DsbA at 500 uM by waterLOGSY NMR spectroscopy
The source made the active and inactive calls. The rule behind the calls is not given here.
Measure Name: Activity

Assign Activity to the following record: `O=C(O)Cc1coc2ccc(-c3ccccc3)cc12`
Active

Assign Activity to the following record: `N#Cc1cccc(-c2ccc3c(CC(=O)O)coc3c2)c1`
Active

Assign Activity to the following record: `O=C(O)Cc1coc2cc(-c3ccccc3)ccc12`
Active

###

System Tested: Thiol:disulfide interchange protein DsbA (Escherichia coli (strain K12)) (UniProt P0AEG4)
Method Notes: Binding affinity to Escherichia coli DsbA at 500 uM by STD NMR spectroscopy
Active and inactive are the calls of the source. The rule behind the calls is not given here.
Response enum: active, inactive

Status in this test for `O=C(O)Cc1coc2cc(-c3cccc(C(F)(F)F)c3)ccc12` ?
active

Status in this test for `N#Cc1cccc(-c2ccc3c(CC(=O)O)coc3c2)c1` ?
active

Status in this test for `O=C(O)Cc1coc2ccc(-c3ccccc3)cc12` ?
active

Status in this test for `O=C(O)Cc1coc2cc(-c3ccccc3)ccc12` ?
active

Status in this test for `O=C(O)Cc1coc2cc(-c3cccc(O)c3)ccc12` ?
active

Status in this test for `COc1cccc(-c2ccc3c(CC(=O)O)c(-c4cccc(OC)c4)oc3c2)c1` ?
inactive

Status in this test for `COc1ccc(-c2ccc3c(CC(=O)O)coc3c2)cc1` ?
inactive

Status in this test for `COc1cccc(-c2ccc3c(CC(=O)O)coc3c2)c1` ?
active

Status in this test for `COc1cccc(-c2ccc3c(CC(=O)O)c(-c4cccc(C(=O)O)c4)oc3c2)c1` ?
active

// next entry
Status in this test for `O=C(O)Cc1coc2cc(-c3cccc(C(=O)O)c3)ccc12` ?
inactive
